- Protocol: PK study in male Sprague-Dawley rats dosed once per day for five days, PO 1 mg/kg, 0.5% HPMC (Example 6)
- Type: in vivo
- Settings: male, Sprague-Dawley, rat, in vivo, po, 1 mg/kg, male Sprague-Dawley rats, single (first) PO 1 mg/kg dose, 0.5% HPMC suspension; individual animals; read-out: Cmax
- Experimental: Example 6: PK study of 4ET-03-053 in male Sprague-Dawley rats dosed once per day for five days (P0; 1 mg/kg; 0.500HPMC aqueous suspension) Table 18 provides plasma and brain concentrations of 4ET-03-0053 at 24 hr after the last dose of five daily P0 doses.
Assay Metric: Cmax (ng/mL)
Report only the number, with the unit ng/mL understood.

Inquiry: Please give the documented Cmax of Cc1cc(Nc2cc(N)ncn2)c(=O)n2c1C(=O)NC21CCC2(CC2)CC1
Reply text: 2400

* * *

- Protocol: PK study in male Sprague-Dawley rats dosed once per day for five days, PO 25 mg/kg, 0.5% HPMC (Example 8)
- Assay type: in vivo
- Settings: male, Sprague-Dawley, rat, in vivo, po, 25 mg/kg, day five of daily PO 25 mg/kg, 0.5% HPMC suspension, mean (n = 3)
Assay Metric: AUC(0-t)

Inquiry: Please give the documented AUC(0-t) of Cc1cc(Nc2cc(N)ncn2)c(=O)n2c1C(=O)NC21CCC2(CC2)CC1
Reply text: 367 µg·h/mL

* * *

- Protocol: PK study in male Sprague-Dawley rats dosed once per day for five days, PO 25 mg/kg, 0.5% HPMC (Example 8)
- Type: in vivo
- Settings: male, Sprague-Dawley, rat, in vivo, po, 25 mg/kg, single PO 25 mg/kg, 0.5% HPMC suspension, at 24 hr, read-out: last measurable concentration
Assay Metric: concentration at 24 h (ng/mL)
Report only the number, with the unit ng/mL understood.

Inquiry: Please give the documented concentration at 24 h of Cc1cc(Nc2cc(N)ncn2)c(=O)n2c1C(=O)NC21CCC2(CC2)CC1
Reply text: 2890

* * *

- Protocol: PK study in male Sprague-Dawley rats, IV 0.5 mg/kg and PO 1 mg/kg in 10% DMA/PG (Example 5)
- Format: in vivo
- Settings: male, Sprague-Dawley, rat, in vivo, iv, 0.5 mg/kg, steady-state volume of distribution (Vss)
Assay Metric: Vd (L/kg)
Report only the number, with the unit L/kg understood.

Inquiry: Please give the documented Vd of Cc1cc(Nc2cc(N)ncn2)c(=O)n2c1C(=O)NC21CCC2(CC2)CC1 [4ET-03-053]
Reply text: 0.87

* * *

- Protocol: PK study in male Sprague-Dawley rats, IV 0.5 mg/kg and PO 1 mg/kg in 10% DMA/PG (Example 5)
- Type: in vivo
- Settings: male, Sprague-Dawley, rat, in vivo, po, 1 mg/kg, peak plasma concentration (Cmax)
Assay Metric: Cmax (ng/mL)
Report only the number, with the unit ng/mL understood.

Inquiry: Please give the documented Cmax of Cc1cc(Nc2cc(N)ncn2)c(=O)n2c1C(=O)NC21CCC2(CC2)CC1
Reply text: 683

* * *

- Protocol: PK study in male Sprague-Dawley rats dosed once per day for five days, PO 25 mg/kg, 0.5% HPMC (Example 8)
- Type: in vivo
- Settings: male, Sprague-Dawley, rat, in vivo, po, 25 mg/kg, single PO 25 mg/kg dose, 0.5% HPMC suspension, mean (n = 3), read-out: Cmax
Assay Metric: Cmax

Inquiry: Please give the documented Cmax of Cc1cc(Nc2cc(N)ncn2)c(=O)n2c1C(=O)NC21CCC2(CC2)CC1
Reply text: 25900 ng/mL

* * *

- Protocol: Plasma and brain concentrations, brain to plasma ratio 24 hr after last of five 10 mg/kg PO doses (Example 7)
- Assay type: in vivo
- Settings: male, Sprague-Dawley, rat, brain homogenate, oral, 10 mg/kg, rats, brain homogenate, 24 hr after the last of five 10 mg/kg PO doses; individual animals (n = 3); read-out: Tissue Homogenate Conc.
Assay Metric: concentration at 24 h (ng/mL)
Report only the number, with the unit ng/mL understood.

Inquiry: Please give the documented concentration at 24 h of Cc1cc(Nc2cc(N)ncn2)c(=O)n2c1C(=O)NC21CCC2(CC2)CC1 [4ET-03-053]
Reply text: 75.6

* * *

- Protocol: Plasma and brain concentrations, brain to plasma ratio in SD rats 2 hr after single 10 mg/kg PO (Example 4)
- Type: in vivo
- Settings: Sprague-Dawley, rat, brain, po, 10 mg/kg, 2 hr post single PO dose 10 mg/kg, read-out: Brain Mean Tissue
Assay Metric: concentration at 2 hr (ng/g)
Report only the number, with the unit ng/g understood.

Inquiry: Please give the documented concentration at 2 hr of Cc1cc(Nc2cc(N)ncn2)c(=O)n2c1C(=O)NC21CCC2(CC2)CC1
Reply text: 1400

* * *

- Protocol: PK study in CD-1 male mice with IV and PO dosing (Example 3)
- Assay type: in vivo
- Settings: male, CD-1, mouse, in vivo, po, 10 mg/kg, Clast
Assay Metric: concentration at 24 h (ng/mL)
Report only the number, with the unit ng/mL understood.

Inquiry: Please give the documented concentration at 24 h of Cc1cc(Nc2cc(N)ncn2)c(=O)n2c1C(=O)NC21CCC2(CC2)CC1 [4ET-03-053]
Reply text: 33.2

* * *

- Protocol: Plasma and brain concentrations, brain:plasma ratio 24 hr after last of five daily 1 mg/kg PO doses (Example 6)
- Type: in vivo, rats
- Settings: male, Sprague-Dawley, rat; rats, brain to plasma, 24 hr after the last 1 mg/kg PO dose on day 5; read-out: Mean Tissue/Plasma Conc. Ratio
Assay Metric: Kp at 24 h
Number, no unit, nothing else.

Inquiry: Please give the documented Kp at 24 h of Cc1cc(Nc2cc(N)ncn2)c(=O)n2c1C(=O)NC21CCC2(CC2)CC1
Reply text: 0.086

* * *

- Protocol: PK study in male Sprague-Dawley rats dosed once per day for five days, PO 10 mg/kg, 0.5% HPMC (Example 7)
- Assay type: in vivo
- Settings: male, Sprague-Dawley, rat, in vivo, po, 10 mg/kg, male Sprague-Dawley rats, single PO 10 mg/kg, 0.5% HPMC suspension, at 24 hr; read-out: last measurable concentration
Assay Metric: concentration at 24 h
# output: numeric value plus its unit

Inquiry: Please give the documented concentration at 24 h of Cc1cc(Nc2cc(N)ncn2)c(=O)n2c1C(=O)NC21CCC2(CC2)CC1 [4ET-03-053]
Reply text: 1340 ng/mL

* * *

- Protocol: Plasma and brain concentrations, brain to plasma ratio 24 hr after last of five 10 mg/kg PO doses (Example 7)
- Type: in vivo
- Settings: male, Sprague-Dawley, rat; rats, brain to plasma, 24 hr after the last of five 10 mg/kg PO doses; read-out: Mean Tissue/Plasma Conc. Ratio
Assay Metric: Kp at 24 h

Inquiry: Please give the documented Kp at 24 h of Cc1cc(Nc2cc(N)ncn2)c(=O)n2c1C(=O)NC21CCC2(CC2)CC1
Reply text: 0.128

* * *

- Protocol: Plasma and brain concentrations, brain to plasma ratio in male CD1 mice (Example 3)
- Assay type: in vivo
- Settings: male, CD1, mouse, brain tissue homogenate, 2 h post dosing, mean, read-out: Brain Tissue Homogenate Conc., Mean
Assay Metric: concentration at 2 h (ng/mL)
Report only the number, with the unit ng/mL understood.

Inquiry: Please give the documented concentration at 2 h of Cc1cc(Nc2cc(N)ncn2)c(=O)n2c1C(=O)NC21CCC2(CC2)CC1
Reply text: 5.64

* * *

- Protocol: PK study in male Sprague-Dawley rats dosed once per day for five days, PO 1 mg/kg, 0.5% HPMC (Example 6)
- Type: in vivo
- Settings: male, Sprague-Dawley, rat, in vivo, po, 1 mg/kg, male Sprague-Dawley rats, single PO 1 mg/kg, 0.5% HPMC suspension
Assay Metric: bioavailability (%)
Report only the number, with the unit % understood.

Inquiry: Please give the documented bioavailability of Cc1cc(Nc2cc(N)ncn2)c(=O)n2c1C(=O)NC21CCC2(CC2)CC1 [4ET-03-053]
Reply text: 65.4

* * *

- Protocol: PK study in male Sprague-Dawley rats dosed once per day for five days, PO 10 mg/kg, 0.5% HPMC (Example 7)
- Type: in vivo
- Settings: male, Sprague-Dawley, rat, in vivo, po, 10 mg/kg, male Sprague-Dawley rats, single PO 10 mg/kg dose, 0.5% HPMC suspension; mean (n = 3); read-out: Clast
Assay Metric: concentration at 24 h (µg/mL)
Report only the number, with the unit µg/mL understood.

Inquiry: Please give the documented concentration at 24 h of Cc1cc(Nc2cc(N)ncn2)c(=O)n2c1C(=O)NC21CCC2(CC2)CC1
Reply text: 1.34

* * *

- Protocol: PK study in male Sprague-Dawley rats dosed once per day for five days, PO 25 mg/kg, 0.5% HPMC (Example 8)
- Type: in vivo
- Settings: male, Sprague-Dawley, rat, in vivo, po, 25 mg/kg, single PO 25 mg/kg, 0.5% HPMC suspension, read-out: peak plasma concentration (Cmax)
Assay Metric: Cmax (ng/mL)
Report only the number, with the unit ng/mL understood.

Inquiry: Please give the documented Cmax of Cc1cc(Nc2cc(N)ncn2)c(=O)n2c1C(=O)NC21CCC2(CC2)CC1 [4ET-03-053]
Reply text: 25900
